Origin of values: paper PMC8809517

Target: T1, GFP-9S library array, motif 4 ND N98T;D124N (synthetic construct, N98T;D124N)
T1 chain: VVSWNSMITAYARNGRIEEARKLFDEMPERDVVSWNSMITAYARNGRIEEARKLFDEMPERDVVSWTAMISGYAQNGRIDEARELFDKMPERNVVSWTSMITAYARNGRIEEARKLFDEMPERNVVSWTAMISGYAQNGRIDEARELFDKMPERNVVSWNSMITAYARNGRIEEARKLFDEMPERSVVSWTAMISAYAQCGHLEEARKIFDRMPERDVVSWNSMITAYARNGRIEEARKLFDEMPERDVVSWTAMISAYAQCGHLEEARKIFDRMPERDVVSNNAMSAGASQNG
Experiment: high-throughput RNA pulldown from lysate on Ni-NTA beads; HRP: 50 mM Tris pH 8, 150 mM NaCl, 1 mM beta-mercaptoethanol, 50 ug/ml BSA, 3 ug/ml yeast RNA, 0.5% heparin; ITC and FP: Tris pH 8, 200 mM KCl, 5% glycerol; MST: 50 mM Tris pH 8, 200 mM NaCl, 1 mM DTT, BSA, heparin, 0.05% Tween 20
Details: tags: N-terminal His-eGFP; label: 5' Cy5
The entries below come with measured Kd values attached.
RECORDED METRIC: Kd (nM)

>>> print(df.to_string())
                             binder  observed
0  AUUAGACGUGA (ssRNA) [Cy5-rpoA-G]        59
1    AUUACACGUGA (ssRNA) [Cy5-rpoA]      59.8
